# Tested on: rice (Oryra sativa)
# protocol: Test B flooded paddy test
# Format: in vivo
# condition-set: Oryza sativa, 250 g ai/ha, Flood; 0 to 100 scale where 0 is no effect and 100 is complete control; read-out: Rice plant response rating
# Method: Plant species in the flooded paddy test selected from rice (Oryra sativa), sedge, umbrella (small-flower umbrella sedge, Cyperus difformis), ducksalad (Heteranthera limosa), and barnyardgrass (Echinochloa crus-galli) were grown to the 2-leaf stage for testing. […] Treated plants and controls were maintained in a greenhouse for 13 to 15 d, after which time all species were compared to controls and visually evaluated. […]
Collected pest or weed control at 250 g/ha values appear next to each entry.
readout-label: pest or weed control at 250 g/ha

[[record]]
compound = "Cc1ccc([C@H]2CN(C)C(=O)[C@@H]2C(=O)Nc2c(F)c(F)c(F)c(F)c2F)cc1 [Compound 1292]"
measured = "15%"

[[record]]
compound = "CN1C[C@H](c2cc(C(F)F)cs2)[C@@H](C(=O)Nc2cccc(C#N)c2F)C1=O [Compound 1093]"
measured = "0%"

[[record]]
compound = "CN1C[C@H](c2cc(C(F)F)cs2)[C@@H](C(=O)Nc2cccc(F)c2C#N)C1=O [Compound 1092]"
measured = "0%"

[[record]]
compound = "Cc1ccc([C@H]2CN(C)C(=O)[C@@H]2C(=O)Nc2cccc(F)c2C)cc1Cl [Compound 1014]"
measured = "70%"

[[record]]
compound = "CSc1ccccc1NC(=O)[C@H]1C(=O)N(C)C[C@@H]1c1cccc(C)c1 [Compound 1232]"
measured = "0%"

[[record]]
compound = "O=C1NC[C@H](c2cc(C(F)F)cs2)[C@H]1C(=O)Nc1cccc(F)c1F [Compound 1117]"
measured = "20%"

[[record]]
compound = "O=C(Nc1cccc(F)c1F)[C@H]1C(=O)N(C2CC2)CC[C@@H]1c1ccc(F)cc1 [Compound 1003]"
measured = "0%"

[[record]]
compound = "Cc1c(F)ccc([C@H]2CNC(=O)[C@@H]2C(=O)Nc2cccc(F)c2F)c1F [Compound 1327]"
measured = "0%"

[[record]]
compound = "O=C1NC[C@H](c2nccs2)[C@H]1C(=O)Nc1cccc(F)c1F [Compound 1182]"
measured = "0%"

[[record]]
compound = "COc1ccc([C@H]2CN(C)C(=O)[C@@H]2C(=O)Nc2ccccc2F)c(OC)c1 [Compound 1215]"
measured = "0%"

[[record]]
compound = "COc1cc([C@H]2CN(C)C(=O)[C@@H]2C(=O)Nc2ccccc2SC)ccc1F [Compound 1301]"
measured = "0%"

[[record]]
compound = "Cc1c(F)cccc1NC(=O)[C@H]1C(=O)N(C)C[C@@H]1c1ccc2c(c1)OC(F)(F)O2 [Compound 1252]"
measured = "30%"

[[record]]
compound = "CC(C)Oc1ccc([C@H]2CNC(=O)[C@@H]2C(=O)Nc2ccccc2F)cc1 [Compound 1135]"
measured = "0%"

[[record]]
compound = "O=C1NCC[C@H](c2cccc(Cl)c2)[C@H]1C(=O)Nc1ccccc1F [Compound 1159]"
measured = "0%"

[[record]]
compound = "CSc1ccccc1NC(=O)[C@H]1C(=O)NC[C@@H]1c1ccc2c(c1)OCO2 [Compound 1257]"
measured = "0%"

[[record]]
compound = "N#Cc1cc([C@H]2CNC(=O)[C@]2(O)C(=O)Nc2ccccc2F)ccc1F [Compound 1200]"
measured = "0%"

[[record]]
compound = "N#Cc1ccc([C@H]2CNC(=O)[C@@H]2C(=O)Nc2ccccc2F)cc1F [Compound 1191]"
measured = "10%"

[[record]]
compound = "CN1C[C@H](c2csc(C(F)F)c2)[C@@H](C(=O)Nc2ccccc2F)C1=O [Compound 1123]"
measured = "25%"

[[record]]
compound = "CN1C[C@H](c2ccc(Cl)cc2)[C@@H](C(=O)Nc2ccc(F)c(F)c2F)C1=O [Compound 1144]"
measured = "20%"

[[record]]
compound = "O=C1NC[C@H](c2ccc(C(F)(F)F)cc2)C1C(=O)Nc1ccccc1CO (stereo partly drawn) [Compound 1242]"
measured = "0%"

[[record]]
compound = "CN1C[C@H](c2ccc3ncccc3c2)[C@@H](C(=O)Nc2cccc(F)c2F)C1=O [Compound 1167]"
measured = "0%"

[[record]]
compound = "CN1C[C@H](c2ccc(F)c(C#N)c2)[C@@H](C(=O)Nc2ccccc2F)C1=O [Compound 1254]"
measured = "0%"

[[record]]
compound = "O=C1NC[C@H](c2ccc(C(F)(F)F)cn2)[C@H]1C(=O)Nc1ccc(F)c(F)c1F [Compound 1105]"
measured = "20%"

[[record]]
compound = "CN1C[C@H](c2ccc(C#N)cc2)[C@@H](C(=O)Nc2ccccc2F)C1=O [Compound 1207]"
measured = "0%"

[[record]]
compound = "CSc1ccccc1NC(=O)[C@H]1C(=O)N(C)C[C@@H]1c1cccc(C(F)(F)F)c1 [Compound 1249]"
measured = "0%"

[[record]]
compound = "CN1C[C@H](c2ccc(Cl)c(F)c2)[C@@H](C(=O)Nc2cccc(F)c2F)C1=O [Compound 1265]"
measured = "45%"

[[record]]
compound = "CCc1ccc([C@H]2CNC(=O)[C@@H]2C(=O)Nc2ccccc2SC)cc1 [Compound 1178]"
measured = "20%"

[[record]]
compound = "CN1C[C@H](c2csc3c2CCC3)[C@@H](C(=O)Nc2cccc(F)c2F)C1=O [Compound 1278]"
measured = "35%"

[[record]]
compound = "Cc1c(F)cccc1NC(=O)[C@H]1C(=O)N(C)C[C@@H]1c1cc(C(F)F)cs1 [Compound 1089]"
measured = "0%"

[[record]]
compound = "Cc1cc([C@H]2CNC(=O)[C@@H]2C(=O)Nc2ccccc2C(F)(F)F)ccc1Cl [Compound 1245]"
measured = "0%"

[[record]]
compound = "COc1cccc([C@H]2CNC(=O)[C@@H]2C(=O)Nc2cccc(F)c2F)c1F [Compound 1061]"
measured = "15%"

[[record]]
compound = "CN1C[C@H](c2ccc(F)c(Br)c2)[C@@H](C(=O)Nc2cccc(F)c2F)C1=O [Compound 1234]"
measured = "75%"

[[record]]
compound = "Cc1ccc([C@H]2CNC(=O)[C@@H]2C(=O)Nc2c(F)cccc2F)cc1C [Compound 1247]"
measured = "0%"

